The entries below are paired with their reported pIC50.
# assay_target: CYP11A1 (Homo sapiens, UniProt P05108)
# Construct: human H295R adrenocortical carcinoma cell line was used as source of enzyme; endogenous in cells
# Sequence (P05108 40-521): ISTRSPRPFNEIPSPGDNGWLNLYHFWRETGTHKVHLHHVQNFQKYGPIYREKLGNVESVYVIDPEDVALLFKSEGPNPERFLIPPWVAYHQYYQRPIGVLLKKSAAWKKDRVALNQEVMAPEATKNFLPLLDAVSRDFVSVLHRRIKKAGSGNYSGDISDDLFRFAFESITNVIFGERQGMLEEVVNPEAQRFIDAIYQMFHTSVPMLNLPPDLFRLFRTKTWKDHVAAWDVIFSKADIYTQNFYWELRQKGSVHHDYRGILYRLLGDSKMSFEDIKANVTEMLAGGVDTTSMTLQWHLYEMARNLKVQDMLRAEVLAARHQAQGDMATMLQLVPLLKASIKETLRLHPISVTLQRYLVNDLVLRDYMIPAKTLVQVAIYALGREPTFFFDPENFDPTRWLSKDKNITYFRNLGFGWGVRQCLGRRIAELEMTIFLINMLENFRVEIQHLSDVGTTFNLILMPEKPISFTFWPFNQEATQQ
# run_description: CYP11A1 inhibition: modified isocaproic acid release assay (IARA) in H295R cells
# condition_parameters: human H295R adrenocortical carcinoma cells treated three days, 3 nM [24,25-3H]-labelled cholesterol, 1% DMSO, 10 concentrations in duplicates; read-out: IC50 of the test compounds on CYP11A1 inhibition
pIC50: −log10 of the molar value.

molecule: O=c1cc(CN2CCc3ccccc3C2)occ1OCc1ccc(C2(O)COC2)cc1
pIC50: 5.70 to 6.52
//
molecule: CC(C)(C)OC(=O)N1CC[C@H](COc2coc(CN3Cc4ccccc4C3)cc2=O)C1
pIC50: 6.52 to 6.82
//
molecule: CS(=O)(=O)N1CCC(COc2coc(Cn3cc4ccc(C(F)(F)F)cc4c3)cc2=O)CC1
pIC50: 5.70 to 6.52

Request the reported pIC50 associated with CN(C)C(=O)c1ccc(COc2coc(CN3Cc4cccc(F)c4C3)cc2=O)cc1
5.70 to 6.52

Same question, C=Cc1ccc(COc2coc(CN3Cc4ccccc4C3)cc2=O)cc1 this time
5.70 to 6.52

Would you kindly repeat that for O=C(C1CCC(COc2coc(CN3Cc4ccccc4C3)cc2=O)CC1)N1CCC1 (centres unmarked) ?
> 6.82
